The measurements presented in this section are drawn from paper PMC6271477.

Assay: Tryptophan fluorescence, binding to lipid vesicles
Settings: PC/cholesterol (8:1, w/w) vesicles versus HEPES buffer, peptide 2 μM, lipid 100 μM
MEASURED PROPERTY: Blue shift in emission maximum (nm)

[[record]]
substance = "Ac-KWKSFLKTFKSAKKTGLHTALKAISS-NH2 [Peptide V16G]"
result = 1

[[record]]
substance = "Ac-KWKSFLKTFKSAKKTLLHTALKAISS-NH2 [Peptide V16L]"
result = 2

[[record]]
substance = "Ac-KWKSFLKTFKSAKKTSLHTALKAISS-NH2 [Peptide V16S]"
result = 1

[[record]]
substance = "Ac-KWKSFLKTFKSAKKTELHTALKAISS-NH2 [Peptide V16E]"
result = 1

[[record]]
substance = "Ac-KWKSFLKTFKSAKKTALHTALKAISS-NH2 [Peptide V16A]"
result = 1

[[record]]
substance = "Ac-KWKSFLKTFKSAKKTKLHTALKAISS-NH2 [Peptide V16K]"
result = 1

